These data points were gathered from patent US20220315554A1.

tgt: Human recombinant FAP (Homo sapiens, UniProt Q12884)
Sequence (Q12884 whole entry): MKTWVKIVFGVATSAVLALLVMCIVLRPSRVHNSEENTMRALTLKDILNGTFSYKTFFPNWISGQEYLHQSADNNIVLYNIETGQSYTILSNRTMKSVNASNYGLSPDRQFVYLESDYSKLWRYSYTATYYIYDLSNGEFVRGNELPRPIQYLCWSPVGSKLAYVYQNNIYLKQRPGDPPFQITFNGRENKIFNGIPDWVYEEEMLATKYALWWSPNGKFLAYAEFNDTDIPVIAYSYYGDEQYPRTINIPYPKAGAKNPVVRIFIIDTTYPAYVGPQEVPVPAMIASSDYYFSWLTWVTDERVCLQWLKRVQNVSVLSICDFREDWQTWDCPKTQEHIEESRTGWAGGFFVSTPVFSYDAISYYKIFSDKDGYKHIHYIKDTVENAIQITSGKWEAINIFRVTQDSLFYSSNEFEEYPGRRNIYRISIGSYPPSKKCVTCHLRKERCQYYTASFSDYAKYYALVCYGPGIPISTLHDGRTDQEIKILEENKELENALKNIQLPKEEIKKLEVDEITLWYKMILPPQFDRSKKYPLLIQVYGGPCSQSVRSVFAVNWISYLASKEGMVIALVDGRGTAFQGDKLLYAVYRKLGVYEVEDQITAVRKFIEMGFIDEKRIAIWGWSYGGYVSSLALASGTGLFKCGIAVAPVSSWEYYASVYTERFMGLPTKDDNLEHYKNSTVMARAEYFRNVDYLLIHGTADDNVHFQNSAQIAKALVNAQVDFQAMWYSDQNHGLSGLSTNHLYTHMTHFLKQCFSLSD
assayDetails: FRET-based FAP protease activity assay
Assay type: biochemical
Parameters: purchased R&D systems 3715-SE
protocolConditions: pIC50 Category (Activity), FRET substrate, 37° C.
Numbered stars: 1 amine (or outer) side, 2 acyl side, 3 side chain; on linkers, the order of the positions; unused ones are H or OH. Bridge positions count the residues as written; N and C are the ends. Square brackets hold non-standard residues; d marks the D form. Peptide text beside a SMILES is read from it. * marks the point of attachment. TBMB(SCH2CH2NH-DOTA) = O=C(O)CN1CCN(CC(=O)O)CCN(CC(=O)NCCSCc2cc(C[*:1])cc(C[*:2])c2)CCN(CC(=O)O)CC1; X12 = NCCNCC(CNCCN)C(=O)NCCCOCCOCCOCCCN*; mXylylene = c1cc(C[*:1])cc(C[*:2])c1; Suc = O=C(CCC(=O)[*:2])[*:1]; Nle = CCCC[C@H](N)C(=O)O; Hexanoyl = CCCCCC(=O)*
reportedMetric: IC50

CCCCCC(=O)N[C@H]1CSCc2cc(CSCCNC(=O)CN3CCN(CC(=O)O)CCN(CC(=O)O)CCN(CC(=O)O)CC3)cc(c2)CSC[C@@H](C(=O)N[C@@H](CC(=O)O)C(=O)O)NC(=O)[C@H](Cc2ccccc2)NC(=O)[C@H](CCC(N)=O)NC(=O)[C@H]([C@@H](C)O)NC(=O)[C@@H]2CCCN2C(=O)[C@@H]2CCCN2C1=O [3BP-3665] (Hexanoyl-CPPTQFCD-OH; linker 1-7 via TBMB(SCH2CH2NH-DOTA)) : < 10 nM

For every item below, please supply its IC50.
1. CCCCCC(=O)N[C@H]1CSCc2cc(CSCCNC(=O)CCCN(C)C(=O)c3ccccc3-c3c4ccc(=N)c(S(=O)(=O)O)c-4oc4c(S(=O)(=O)O)c(N)ccc34)cc(c2)CSC[C@@H](C(=O)O)NC(=O)[C@H](Cc2ccccc2)NC(=O)[C@H](CCC(N)=O)NC(=O)[C@H]([C@@H](C)O)NC(=O)[C@@H]2CCCN2C(=O)[C@@H]2CCCN2C1=O
2. CCCCCC(=O)N[C@H]1CSCc2cc(CSCCNC(=O)CCc3ccc(O)c(CN(CCN(CC(=O)O)Cc4cc(CCC(=O)O)ccc4O)CC(=O)O)c3)cc(c2)CSC[C@@H](C(=O)O)NC(=O)[C@H](Cc2ccccc2)NC(=O)[C@H](CCC(N)=O)NC(=O)[C@H]([C@@H](C)O)NC(=O)[C@@H]2CCCN2C(=O)[C@@H]2CCCN2C1=O
3. CCCC[C@H](NC(=O)CCC(=O)NCCCOCCOCCOCCCNC(=O)C(CNCCN)CNCCN)C(=O)N[C@H]1CSCc2cccc(c2)CSC[C@@H](C(=O)O)NC(=O)[C@H](Cc2ccccc2)NC(=O)[C@H](CCC(=O)O)NC(=O)[C@H]([C@@H](C)O)NC(=O)[C@@H]2CCCN2C(=O)[C@@H]2CCCN2C1=O [3BP-4161] ({X12-Suc}-[Nle]CPPTEFC-OH; linker 2-8 via mXylylene)

Result:
1: 10 to 79.4 nM; 2: 10 to 79.4 nM; 3: < 10 nM
